tested on: VDR:RXRa (NR concentration 270 nM, RXRa partner concentration 90 nM); test: PBM binding z-score (relative to random genomic background probes); higher = stronger binding; sequences stand for … in GC…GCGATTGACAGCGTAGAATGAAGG
measured.parameter: PBM binding z-score
Please state the value as a number alone, without comment.

Worked cases, answers included:
> print(dat)
                     monomer.sequence  assay.value
1  CGTCCAAGGTCAGAAAGGTCAGTGAATGCCGAGT         6.33
2  AACGAAAGGTCGAGGTGAGTATAGAGAAAGGGAA         2.85
3  AACACAGGGTCATCGTAGGCCAGAGTACGCACAG         5.15

Which PBM binding z-score is reported for this sequence? CCGACTGGGGCATAAGGTTACTATAAGCCAGCCC
0.306

Which PBM binding z-score is reported for this sequence? ATCTCTAGGTAAGACTCAGTGCAGTGAAGAACGC
-0.0962

Which PBM binding z-score is reported for this sequence? TAGCCTAGGTCAAATCGGGCCAGTATACGCTATA
2.7

Which PBM binding z-score is reported for this sequence? TCTCGGAGGACACGAAAGTTCAGAGCTCGACATC
2.25

Which PBM binding z-score is reported for this sequence? ATCCCTAGGTAACAAGTTCAGTGAAAGAGAGGAC
1.91

Which PBM binding z-score is reported for this sequence? CAAACTAGGTCCAAGGTCAAAGTCGAGCCAACCA
4.04

Which PBM binding z-score is reported for this sequence? CCTACTGGGCCAAGGTCATTGGTCAGTCAAAGCA
3.39

Which PBM binding z-score is reported for this sequence? TTACCAAGGTGAAAGGTCGTTAATGCACGCCTTG
2.95

Which PBM binding z-score is reported for this sequence? TCATATAGGTAAACAGGTGAAAGTCCGTAAGTTA
1.27

Which PBM binding z-score is reported for this sequence? TCAAGTAGGTTAGTCGGGGCATTCAGCCAACATA
2.43

Which PBM binding z-score is reported for this sequence? ATCTCTAGGTAAAGATAGTTCAGTGAATGCAAAT
0.815

Which PBM binding z-score is reported for this sequence? CCTACTGCGCCATCAGGTCATTGATATCAACGTT
2.07

Which PBM binding z-score is reported for this sequence? AGTCAACGTTCATCTAGGTAACGTAAGATATGCT
-0.0927

Which PBM binding z-score is reported for this sequence? GCTGCTACGTCAACTGATGGTCAGCTAAAGCTCG
-0.617
